The reported numbers originate from paper PMC2796168.

Target: T1, Evasin-1 WT (Rhipicephalus sanguineus, UniProt P0C8E7 21-114)
T1 chain: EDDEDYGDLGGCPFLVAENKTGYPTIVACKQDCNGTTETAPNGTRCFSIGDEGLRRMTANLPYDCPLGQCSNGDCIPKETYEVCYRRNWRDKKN
Test: SPR
ENDPOINT NAME: koff (s⁻¹)
Dear colleague, please return just the value in s⁻¹, with no unit written.

binder="Δ4CCL3 (ligand) ADTPTACCFSYTSRQIPQNFIADYFETSSQCSKPGVIFLTKRSRQVCADPSEEWVQKYVSDLELSA" endpoint_name=koff numeric_result=0.00041
binder="CCL4 (protein, disulfide (positions not given here)) APMGSDPPTACCFSYTARKLPRNFVVDYYETSSLCSQPAVVFQTKRSKQVCADPSESWVQEYVYDLELN" endpoint_name=koff numeric_result=0.0022
binder="CCL18 (protein, disulfide (positions not given here)) AQVGTNKELCCLVYTSWQIPQKFIVDYSETSPQCPKPGVILLTKRGRQICADPNKKWVQKYISDLKLNA" endpoint_name=koff numeric_result=0.0111
binder="CCL3/CCL5 chimera (ligand) ASLAADTPTACCFAYIARPLPRAHIKEYFYTSGKCSNPAVVFVTRKNRQVCANPEKKWVREYINSLEMS" endpoint_name=koff numeric_result=0.0038

Turning to the following binder.
Fill in: koff of CCL3 (ligand) SLAADTPTACCFSYTSRQIPQNFIADYFETSSQCSKPGVIFLTKRSRQVCADPSEEWVQKYVSDLELSA is ___
0.00243
